- Tested target: BRAF (Homo sapiens (Human), UniProt P15056)
- Sequence (P15056 whole entry): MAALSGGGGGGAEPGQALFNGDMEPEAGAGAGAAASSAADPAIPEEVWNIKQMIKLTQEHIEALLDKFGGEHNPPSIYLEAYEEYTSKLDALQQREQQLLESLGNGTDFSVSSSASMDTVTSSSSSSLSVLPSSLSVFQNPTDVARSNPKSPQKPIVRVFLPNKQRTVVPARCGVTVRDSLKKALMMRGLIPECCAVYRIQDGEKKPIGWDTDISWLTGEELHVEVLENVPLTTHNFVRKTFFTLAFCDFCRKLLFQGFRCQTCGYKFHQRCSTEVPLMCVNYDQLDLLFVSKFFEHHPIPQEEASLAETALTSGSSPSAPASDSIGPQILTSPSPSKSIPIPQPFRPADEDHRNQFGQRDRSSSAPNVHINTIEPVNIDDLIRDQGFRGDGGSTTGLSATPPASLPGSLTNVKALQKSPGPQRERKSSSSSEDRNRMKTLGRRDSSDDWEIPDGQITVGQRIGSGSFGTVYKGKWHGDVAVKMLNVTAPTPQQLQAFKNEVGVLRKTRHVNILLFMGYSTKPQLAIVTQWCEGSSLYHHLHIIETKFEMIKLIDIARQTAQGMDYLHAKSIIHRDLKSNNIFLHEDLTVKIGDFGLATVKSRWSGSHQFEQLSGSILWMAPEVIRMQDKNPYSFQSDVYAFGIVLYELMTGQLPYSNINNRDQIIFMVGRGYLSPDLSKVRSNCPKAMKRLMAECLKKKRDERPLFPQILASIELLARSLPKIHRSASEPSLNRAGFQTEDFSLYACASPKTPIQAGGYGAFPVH
- Experiment notes: Inhibitory activity against kinase BRAF, Z'-LYTE method (Invitrogen)
- Format: biochemical
- Setup conditions: 1 μM compound
- Experimental: Inhibitory activities Inhibitory activities of compounds against BRAF, and BRAF V600E were measured by Invitrogen using Z′-LYTE® Method as briefly described in the following. 4× Test compounds are dissolved in 1% DMSO. […] Fluorescence was read by plate reader. IC50 was calculated by plotting the concentration of compound vs the percentage of inhibition in treated wells using GraphPad Prism 5. […]
Parameter measured: inhibition at 1 µM

INSERT INTO results (chemical_smiles, tested_target, parameter_measured, result) VALUES
  ('N#Cc1ccc(NC(=O)Nc2cccc(Oc3ccc4nccnc4c3)c2)cc1', 'BRAF (Homo sapiens (Human), UniProt P15056)', 'inhibition at 1 µM', '> 89%'),
  ('O=C(Nc1cccc(Cl)c1)Nc1cccc(Oc2ccc3ncc(N4CCOCC4)nc3c2)c1', 'BRAF (Homo sapiens (Human), UniProt P15056)', 'inhibition at 1 µM', '70 to 89%'),
  ('O=C(Nc1ccc(F)c(F)c1)Nc1ccc(F)c(Oc2ccc3ncc(N4CCOCC4)nc3c2)c1', 'BRAF (Homo sapiens (Human), UniProt P15056)', 'inhibition at 1 µM', '70 to 89%'),
  ('O=C(Nc1cccc(Oc2ccc3ncc(N4CCNCC4)nc3c2)c1)Nc1ccc(F)c(F)c1', 'BRAF (Homo sapiens (Human), UniProt P15056)', 'inhibition at 1 µM', '> 89%'),
  ('O=C(Nc1ccc(F)c(F)c1)Nc1ccc(F)c(Oc2ccc3ncc(N4CCNCC4)nc3c2)c1', 'BRAF (Homo sapiens (Human), UniProt P15056)', 'inhibition at 1 µM', '> 89%'),
  ('O=C(Nc1ccc(Oc2ccc3ncc(N4CCNCC4)nc3c2)cc1)Nc1ccc(F)c(C(F)(F)F)c1', 'BRAF (Homo sapiens (Human), UniProt P15056)', 'inhibition at 1 µM', '70 to 89%'),
  ('O=C(Nc1cccc(Cl)c1)Nc1ccc(F)c(Oc2ccc3ncc(N4CCNCC4)nc3c2)c1', 'BRAF (Homo sapiens (Human), UniProt P15056)', 'inhibition at 1 µM', '> 89%'),
  ('O=C(Nc1cc(F)cc(Oc2ccc3nccnc3c2)c1)Nc1cccc(C(F)(F)F)c1', 'BRAF (Homo sapiens (Human), UniProt P15056)', 'inhibition at 1 µM', '< 70%'),
  ('O=C(Nc1cccc(Cl)c1)Nc1cccc(Oc2ccc3ncc(N4CCNCC4)nc3c2)c1', 'BRAF (Homo sapiens (Human), UniProt P15056)', 'inhibition at 1 µM', '> 89%'),
  ('O=C(Nc1ccc(F)cc1)Nc1ccc(Oc2ccc3nccnc3c2)cc1F', 'BRAF (Homo sapiens (Human), UniProt P15056)', 'inhibition at 1 µM', '70 to 89%'),
  ('O=C(Nc1ccc(F)c(Cl)c1)Nc1ccc(F)c(Oc2ccc3ncc(N4CCNCC4)nc3c2)c1', 'BRAF (Homo sapiens (Human), UniProt P15056)', 'inhibition at 1 µM', '> 89%'),
  ('O=C(Nc1cccc(Oc2ccc3ncc(N4CCOCC4)nc3c2)c1)Nc1ccc(F)c(F)c1', 'BRAF (Homo sapiens (Human), UniProt P15056)', 'inhibition at 1 µM', '70 to 89%'),
  ('O=C(Nc1ccc(Oc2ccc3ncc(N4CCOCC4)nc3c2)cc1)Nc1cccc(Cl)c1', 'BRAF (Homo sapiens (Human), UniProt P15056)', 'inhibition at 1 µM', '< 70%'),
  ('O=C(Nc1ccc(Cl)cc1)Nc1ccc(F)c(Oc2ccc3ncc(N4CCNCC4)nc3c2)c1', 'BRAF (Homo sapiens (Human), UniProt P15056)', 'inhibition at 1 µM', '> 89%'),
  ('O=C(Nc1ccc(F)cc1)Nc1ccc(Oc2ccc3ncc(N4CCNCC4)nc3c2)cc1', 'BRAF (Homo sapiens (Human), UniProt P15056)', 'inhibition at 1 µM', '70 to 89%');

Reference source for all entries: patent US10590106B2
